For each entry below, report its koff value.
target: canine IL-4RA (construct not given) (canine); assay: SPR, IL-4RA immobilised, periplasmic Fab
I only need the number, in s⁻¹, no unit after it.

Suppose we examine the binder FJ2246MP10B12 (Fab, V domains shown) VH: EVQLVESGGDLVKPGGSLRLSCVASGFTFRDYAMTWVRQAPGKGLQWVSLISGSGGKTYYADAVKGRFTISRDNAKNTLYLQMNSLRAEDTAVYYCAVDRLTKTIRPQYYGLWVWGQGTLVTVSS VL: DIVMTQTPLSLSVSPGETASISCRSSQSLLYSIGYNYLDWYLQKPGQSPQGLIYLGSKRASGVPDRFSGSGNGTDFTLRISRVEAEDTGVYYCMQGLHSPLSFGQGTKLEIK ; what koff value has been reported? 9.41e-05

Also, FJ2246MP06A09 (Fab, V domains shown) VH: EVQLVESGGDLVKPGGSLRLSCVASGFTFRDYAMTWVRQAPGKGLQWVSLINGNGSKTYYADAVKGRFTISRDNAKNTLYLQMNSLRAEDTAVYYCAVDRLTKTIRPQYYGLWVWGQGTLVTVSS VL: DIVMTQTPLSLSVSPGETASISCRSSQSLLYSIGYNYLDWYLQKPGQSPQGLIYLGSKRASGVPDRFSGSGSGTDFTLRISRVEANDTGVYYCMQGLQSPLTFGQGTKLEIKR please. 0.000106

Also, FJ2246MP10G04 (Fab, V domains shown) VH: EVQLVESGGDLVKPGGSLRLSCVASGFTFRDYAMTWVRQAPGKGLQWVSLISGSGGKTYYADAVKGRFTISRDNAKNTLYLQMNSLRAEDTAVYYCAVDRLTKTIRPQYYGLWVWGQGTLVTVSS VL: DIVMTQTPLSLSVSPGETASISCRSSQSLLYSIGYNYLDWYLQKPGQSPQGLIYLGSKRASGVPDRFSGSGSGTDFTLRISRVEAEDTGVYYCMQGLQSPLSFGQGTKLEIK please. 0.000134

Also, FJ2246MP07E01 (Fab, V domains shown) VH: EVQLVESGGDLVKPGGSLRLSCVASGFTFRDYAMTWVRQAPGKGLQWVSLISGSGGKTYYADAVKGRFTISRDNAKNTLYLQMNSLRAEDTAVYYCAVDRLTKTIRPQYYGLWSWGQGTLVTVSS VL: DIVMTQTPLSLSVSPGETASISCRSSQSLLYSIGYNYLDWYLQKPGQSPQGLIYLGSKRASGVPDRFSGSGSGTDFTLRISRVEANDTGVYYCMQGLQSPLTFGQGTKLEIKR please. 0.000135

Also, FJ2246MP06D01 (Fab, V domains shown) VH: EVQLVESGGDLVKPGGSLRLSCVASGFPFRDYAMTWVRQAPGKGLQWVSLVNGSGSKTYYADAVKGRFTISRDNAKNTLYLQMNSLRAEDTAVYYCAVDRLTKTIRPQYYGLWVWGQGTLVTVSS VL: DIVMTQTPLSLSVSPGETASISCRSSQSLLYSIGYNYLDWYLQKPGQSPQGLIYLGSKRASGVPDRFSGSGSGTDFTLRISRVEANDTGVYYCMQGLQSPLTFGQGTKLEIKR please. 7.72e-05
